target-or-test-system: UniProt:Q07817
Sequence (Q07817 whole entry): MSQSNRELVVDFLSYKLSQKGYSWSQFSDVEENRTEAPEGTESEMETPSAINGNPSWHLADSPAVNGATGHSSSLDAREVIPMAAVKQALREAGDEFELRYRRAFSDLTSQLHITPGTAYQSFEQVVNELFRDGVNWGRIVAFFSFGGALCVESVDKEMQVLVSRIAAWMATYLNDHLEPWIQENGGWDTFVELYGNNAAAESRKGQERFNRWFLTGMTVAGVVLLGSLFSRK
test-details: Bcl-xL binding affinity analysis (fluorescence polarization binding assay)
Set-up: scale not given here

molecule	Bcl-XL binding affinity Ki
CC(C)C[C@@H](CN(C)C)N(Cc1cccc(CN2O[C@@H](CO)C([C@H](C)O)[C@H]2C(=O)N[C@H]2C[C@H]3C[C@@H]([C@@H]2C)C3(C)C)c1)Cc1c(Cl)cccc1Cl (some centres unmarked)	♯
CC(O)C1C(CO)ON(Cc2cccc(C(=O)NC(CCc3ccccc3)CN(C)C)c2)C1C(=O)NC1CC2CC(C1C)C2(C)C (centres unmarked) [Compound 511]	♯
Cc1cccc(CN(CCN(C)C)Cc2cccc(CN3OC(CO)C(C(C)O)C3C(=O)NC3CC4CC(C3C)C4(C)C)c2)c1 (centres unmarked)	♯
C[C@H](O)[C@@H]1[C@H](CO)ON(Cc2cccc(-c3ccc(NCCN4CCOCC4)cc3)c2)[C@@H]1C(=O)NC1CC2C[C@@H]([C@@H]1C)C2(C)C (some centres unmarked)	♯
C[C@@H]1[C@@H](NC(=O)[C@@H]2[C@H]([C@H](C)O)[C@H](CO)ON2Cc2cccc(-c3cccc(C(=O)N4CC[C@H](N(C)C)C4)c3)c2)C[C@H]2C[C@@H]1C2(C)C	♯♯

* * *

# Ki per entry for UniProt P10415

compound	Ki
C[C@@H]1[C@@H](NC(=O)[C@@H]2[C@H]([C@H](C)O)[C@H](CO)ON2Cc2cccc(C#CCNS(=O)(=O)Cc3ccccc3)c2)C[C@H]2C[C@@H]1C2(C)C [Compound 74]	0.8 to 6 µM
CC(O)C1C(CO)ON(Cc2cccc(CN3CCN(C)CC3)c2)C1C(=O)NC1CC2CC(C1C)C2(C)C (stereo not drawn) [Compound 447]	< 0.8 µM
C[C@@H]1[C@@H](NC(=O)[C@@H]2C([C@H](C)O)[C@H](CO)ON2Cc2cccc(CN(Cc3ccccc3)[C@@H](CCc3ccccc3)CN(C)C)c2)C[C@H]2C[C@@H]1C2(C)C (stereo partly drawn) [Compound 420]	< 0.8 µM
C[C@@H](O)[C@H]1[C@@H](CO)ON(Cc2cccc(C#CCNS(=O)(=O)c3ccc(Oc4ccccc4)cc3)c2)[C@H]1C(=O)NCCCN(C)c1ccccc1 [Compound 72]	6 to 50 µM
C[C@H](O)[C@@H]1[C@H](CO)ON(Cc2cccc(CN(CCN(C)C)Cc3ccccc3)c2)[C@@H]1C(=O)NC1CCN(Cc2ccccc2)CC1 [Compound 527]	6 to 50 µM
COc1ccc(COc2c(CN3O[C@@H](CO)[C@@H]([C@H](C)O)[C@H]3C(=O)N[C@H]3C[C@H]4C[C@@H]([C@@H]3C)C4(C)C)cccc2-c2ccc(C(=O)N(C)C)cc2)cc1 [Compound 166]	< 0.8 µM

* * *

# Ki per entry for Bcl-2 (Homo sapiens)

molecule	Ki
CC(O)C1C(CO)ON(Cc2cccc(CN(CCN(C)C)Cc3cccnc3)c2)C1C(=O)NC1CC2CC(C1C)C2(C)C (stereo not drawn) [Compound 393]	< 800 nM
C[C@H](NC(=O)[C@@H]1[C@H]([C@H](C)O)[C@H](CO)ON1Cc1cccc(CN(CCN(C)C)Cc2ccccc2)c1)c1ccc2ccccc2c1 [Compound 521]	800 to 6000 nM
CC(O)C1C(CO)ON(Cc2cccc(C(=O)NCc3ccccc3)c2)C1C(=O)NC1CC2CC(C1C)C2(C)C (stereo not drawn) [Compound 510]	< 800 nM
C[C@@H]1[C@@H](NC(=O)[C@@H]2[C@H]([C@H](C)O)[C@H](CO)ON2CCCCN(CCN(C)C)Cc2ccccc2F)C[C@H]2C[C@@H]1C2(C)C [Compound 550]	800 to 6000 nM
C[C@@H]1[C@@H](NC(=O)[C@@H]2[C@H]([C@H](C)O)[C@H](CO)ON2Cc2cccc(-c3cccc(C(=O)NCCCNC(=O)OC(C)(C)C)c3)c2)C[C@H]2C[C@@H]1C2(C)C [Compound 154]	< 800 nM
CCN1CCC[C@H]1CN(Cc1ccccc1)Cc1cccc(CN2O[C@@H](CO)C([C@H](C)O)[C@H]2C(=O)N[C@H]2C[C@H]3C[C@@H]([C@@H]2C)C3(C)C)c1 (stereo partly drawn) [Compound 424]	< 800 nM
CNCC#Cc1cccc(CN2O[C@@H](CO)[C@@H]([C@H](C)O)[C@H]2C(=O)N[C@H]2C[C@H]3CC([C@@H]2C)C3(C)C)c1 [Compound 50]	800 to 6000 nM
CC(C)C[C@@H](CN(C)C)NC(=O)c1cccc(-c2cccc(CN3O[C@@H](CO)[C@@H]([C@H](C)O)[C@H]3C(=O)N[C@H]3C[C@H]4C[C@@H]([C@@H]3C)C4(C)C)c2)c1 [Compound 97]	800 to 6000 nM
C[C@@H]1[C@@H](NC(=O)[C@@H]2[C@H]([C@H](C)O)[C@H](CO)ON2Cc2cccc(CN(CCN(C)C)CCC(C)(C)C)c2)C[C@H]2C[C@@H]1C2(C)C [Compound 203]	< 800 nM
C[C@@H]1[C@@H](NC(=O)[C@@H]2[C@H]([C@H](C)O)[C@H](CO)ON2Cc2cccc(-c3cccc(C(=O)N4CC[C@@H](N(C)C)C4)c3)c2)C[C@H]2C[C@@H]1C2(C)C [Compound 152]	< 800 nM
C[C@@H](O)[C@H]1[C@@H](CO)ON(Cc2cccc(C#CC3(O)CCCC3)c2)[C@H]1C(=O)NCC1CCCCC1 [Compound 40]	> 50000 nM
COCCOCCOc1cccc(CN(CCN(C)C)Cc2cccc(CN3OC(CO)C(C(C)O)C3C(=O)NC3CC4CC(C3C)C4(C)C)c2)c1 (stereo not drawn) [Compound 407]	< 800 nM
CC(O)C1C(CO)ON(Cc2cccc(CN(CCN(C)C)Cc3ccc([N+](=O)[O-])cc3)c2)C1C(=O)NC1CC2CC(C1C)C2(C)C (stereo not drawn) [Compound 396]	< 800 nM
C[C@@H]1[C@@H](NC(=O)[C@@H]2C(CO)[C@H]([C@H](C)O)ON2Cc2cccc(C#CC(C)(O)c3ccccc3)c2)C[C@H]2C[C@@H]1C2(C)C (stereo partly drawn) [Compound 35]	> 50000 nM
C[C@@H]1[C@@H](NC(=O)[C@@H]2C([C@H](C)O)[C@H](CO)ON2Cc2cccc(CN(CCN(C)C)Cc3ccccc3Cl)c2)C[C@H]2C[C@@H]1C2(C)C (stereo partly drawn) [Compound 346]	< 800 nM

Hello, the source for this data is patent US7851637B2, in case you need it.
